tested on: RPMI-7951 (Melanoma); experiment: combination Emax (second highest fraction inhibited in the dose matrix, 72 h); higher = more inhibition; extreme values may be limits of the assay
OUTCOME MEASURE: combination Emax

Cc1c2c(nn1C)CSCc1cc(n(C)n1)CSc1cc(c3ccccc3c1)OCCCc1c(C(=O)O)n(C)c3c-2c(Cl)ccc13 [AZD5991] + Cn1cnc2c(F)c(Nc3ccc(Br)cc3Cl)c(C(=O)NOCCO)cc21 [Selumetinib] (first compound max 1 µM, 7x7, partner max 3 µM) : 0.934
COc1nnc2ccc(N3CCC(c4ccc(OCCN5CCN(C)C(=O)[C@H]5C)cc4)CC3)nn12 [AZD5153] + Cc1c2c(nn1C)CSCc1cc(n(C)n1)CSc1cc(c3ccccc3c1)OCCCc1c(C(=O)O)n(C)c3c-2c(Cl)ccc13 [AZD5991] (first compound max 1 µM, 7x7, partner max 1 µM) : 0.825

Now for a further molecule.
Query string: Check the records and state combination Emax for CN(CCO)CC[C@H](CSc1ccccc1)Nc1ccc(S(=O)(=O)NC(=O)c2ccc(N3CCC([C@@H](O)c4ccccc4-c4ccc(Cl)cc4)CC3)cc2)cc1S(=O)(=O)C(F)(F)F [AZD4320] + CCN(CCO)CCCOc1ccc2c(Nc3cc(CC(=O)Nc4cccc(F)c4)[nH]n3)ncnc2c1 [AZD2811] (first compound max 1 µM, 7x7, partner max 1 µM)
Result string: 0.647

Attribution: the supplement of paper PMC11061612
